Target: EGFR_d746-750 G724S (Homo sapiens, UniProt P00533, DEL746-750/G724S)
Test: EGFR kinase activity (AQT0794 peptide, Sox fluorescence)
Details: 1 mM ATP, 2.0 nM enzyme, room temperature
observable: IC50 (nM)
Write the answer as a number in nM, unit excluded.

Determine its reported IC50: `C=CC(=O)Nc1cc(Nc2cc(N3OCC[C@@H]3c3cc(F)cc(F)c3)ncn2)c(OC)cc1N1CCC(N2CCN(C3CC3)CC2)CC1`
3.5

====

Target: EGFR_d746-750 S768I (Homo sapiens, UniProt P00533, DEL746-750/S768I)
Construct: purchased SignalChem E10-122B3G
Sequence (P00533 with tags, fused parts or gaps DEL746-750/S768I): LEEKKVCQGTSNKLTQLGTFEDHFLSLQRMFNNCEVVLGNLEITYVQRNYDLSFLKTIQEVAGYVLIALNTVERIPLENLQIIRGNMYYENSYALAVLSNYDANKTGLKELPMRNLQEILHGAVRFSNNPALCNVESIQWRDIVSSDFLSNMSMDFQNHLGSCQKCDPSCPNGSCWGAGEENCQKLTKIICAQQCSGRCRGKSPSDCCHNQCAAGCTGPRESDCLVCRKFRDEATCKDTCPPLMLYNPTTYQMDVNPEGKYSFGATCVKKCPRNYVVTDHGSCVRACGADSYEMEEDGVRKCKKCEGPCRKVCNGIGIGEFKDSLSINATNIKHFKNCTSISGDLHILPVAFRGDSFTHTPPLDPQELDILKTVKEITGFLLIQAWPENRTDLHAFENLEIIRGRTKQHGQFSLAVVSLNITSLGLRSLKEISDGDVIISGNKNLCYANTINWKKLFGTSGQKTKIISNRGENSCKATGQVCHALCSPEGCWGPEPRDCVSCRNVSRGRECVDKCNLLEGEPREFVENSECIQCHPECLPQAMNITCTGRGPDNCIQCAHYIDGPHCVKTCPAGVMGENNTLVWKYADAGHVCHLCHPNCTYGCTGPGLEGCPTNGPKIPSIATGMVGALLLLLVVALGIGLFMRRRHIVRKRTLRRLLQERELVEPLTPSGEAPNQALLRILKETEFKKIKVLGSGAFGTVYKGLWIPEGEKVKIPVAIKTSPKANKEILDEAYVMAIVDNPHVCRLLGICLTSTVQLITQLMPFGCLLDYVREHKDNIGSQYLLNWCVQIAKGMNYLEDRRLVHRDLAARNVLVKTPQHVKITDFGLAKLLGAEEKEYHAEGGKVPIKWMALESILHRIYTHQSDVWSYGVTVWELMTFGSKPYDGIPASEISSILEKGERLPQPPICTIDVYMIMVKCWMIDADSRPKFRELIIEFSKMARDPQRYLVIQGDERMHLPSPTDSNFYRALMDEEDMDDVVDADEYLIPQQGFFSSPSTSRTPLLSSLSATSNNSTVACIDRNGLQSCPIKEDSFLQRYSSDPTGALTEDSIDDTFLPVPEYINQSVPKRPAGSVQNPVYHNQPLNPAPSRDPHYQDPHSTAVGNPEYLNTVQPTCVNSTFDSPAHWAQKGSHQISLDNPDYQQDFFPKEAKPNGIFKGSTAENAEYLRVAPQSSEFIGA
Assay: EGFR kinase activity (AQT0794 peptide, Sox fluorescence)
Format: biochemical
Settings: 1 mM ATP, 2.0 nM enzyme, room temperature
Procedure: Compound I was dissolved in DMSO to generate a 10 mM stock solution. Dosing solutions for biochemical assays were prepared by serial dilution in DMSO followed by dilution in assay buffers as described in the experimental procedures. […] Activity of human recombinant EGFR wildtype and mutant proteins was measured by the phosphorylation of a peptide substate via chelation-enhanced fluorescence using the sulfonamido-oxine (Sox) chromophore detection format. […]
observable: pIC50
Note on units: pIC50 is unitless, being -log10 of a concentration expressed in mol/L.

Determine its reported pIC50: C=CC(=O)Nc1cc(Nc2cc(N3OCC[C@@H]3c3cc(F)cc(F)c3)ncn2)c(OC)cc1N1CCC(N2CCN(C3CC3)CC2)CC1 [Compound I]
9.00

====

Assay: Solubility screening of malonate salt of Compound I in various solvents at RT
Type: physicochemical
Details: organic solvent or mixture; CPME, RT
Counter-ions that a name gives are not always drawn.
observable: solubility

Determine its reported solubility: C=CC(=O)Nc1cc(Nc2cc(N3OCC[C@@H]3c3cc(F)cc(F)c3)ncn2)c(OC)cc1N1CCC(N2CCN(C3CC3)CC2)CC1 [malonate salt of Compound I]
< 1100 µg/mL

====

Target: EGFR WT (Homo sapiens, UniProt P00533)
Sequence (P00533 25-1210): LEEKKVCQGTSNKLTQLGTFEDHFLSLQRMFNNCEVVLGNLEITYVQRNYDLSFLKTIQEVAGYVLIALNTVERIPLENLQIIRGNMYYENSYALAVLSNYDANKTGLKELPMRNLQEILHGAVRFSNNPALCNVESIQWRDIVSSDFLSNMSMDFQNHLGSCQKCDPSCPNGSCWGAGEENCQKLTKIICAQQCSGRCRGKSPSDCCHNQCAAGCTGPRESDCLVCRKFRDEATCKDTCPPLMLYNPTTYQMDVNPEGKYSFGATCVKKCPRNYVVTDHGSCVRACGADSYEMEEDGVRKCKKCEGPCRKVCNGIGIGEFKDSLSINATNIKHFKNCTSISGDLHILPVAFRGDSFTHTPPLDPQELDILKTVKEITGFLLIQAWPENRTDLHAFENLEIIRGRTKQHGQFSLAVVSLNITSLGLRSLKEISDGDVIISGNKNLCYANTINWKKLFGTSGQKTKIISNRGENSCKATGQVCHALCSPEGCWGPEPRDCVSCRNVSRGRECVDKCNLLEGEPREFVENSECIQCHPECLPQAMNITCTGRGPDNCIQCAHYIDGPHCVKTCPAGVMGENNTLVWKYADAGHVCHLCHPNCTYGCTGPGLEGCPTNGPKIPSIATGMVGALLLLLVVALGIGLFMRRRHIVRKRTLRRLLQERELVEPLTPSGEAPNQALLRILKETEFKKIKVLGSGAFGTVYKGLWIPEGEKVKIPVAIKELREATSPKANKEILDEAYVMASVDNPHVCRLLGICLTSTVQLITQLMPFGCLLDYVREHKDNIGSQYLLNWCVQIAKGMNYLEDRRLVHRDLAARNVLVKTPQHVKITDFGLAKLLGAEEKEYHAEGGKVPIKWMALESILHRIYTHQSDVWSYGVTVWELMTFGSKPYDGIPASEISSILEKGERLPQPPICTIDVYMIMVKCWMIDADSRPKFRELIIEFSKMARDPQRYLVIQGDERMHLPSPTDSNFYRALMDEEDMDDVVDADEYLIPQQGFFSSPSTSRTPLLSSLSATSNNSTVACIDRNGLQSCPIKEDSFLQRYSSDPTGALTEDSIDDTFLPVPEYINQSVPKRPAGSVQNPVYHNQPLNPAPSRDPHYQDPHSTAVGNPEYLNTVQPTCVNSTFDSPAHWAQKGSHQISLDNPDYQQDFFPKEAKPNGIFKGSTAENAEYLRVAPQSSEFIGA
observable: IC50 (nM)
Write the answer as a number in nM, unit excluded.

Determine its reported IC50: `C=CC(=O)Nc1cc(Nc2cc(N3OCC[C@@H]3c3cc(F)cc(F)c3)ncn2)c(OC)cc1N1CCC(N2CCN(C3CC3)CC2)CC1`
2.3

====

Assay: Solubility screening of malonate salt of Compound I in various solvents at RT
Format: physicochemical
Settings: organic solvent or mixture; THF, RT
Structures can show the parent of a compound that is named as a salt.
observable: solubility

Determine its reported solubility: C=CC(=O)Nc1cc(Nc2cc(N3OCC[C@@H]3c3cc(F)cc(F)c3)ncn2)c(OC)cc1N1CCC(N2CCN(C3CC3)CC2)CC1 [malonate salt of Compound I]
2100 to 7000 µg/mL

====

Experiment: Solubility screening of malonate salt of Compound I in various solvents at RT
Format: physicochemical
Conditions: organic solvent or mixture; DCM, RT
Structures can show the parent of a compound that is named as a salt.
observable: solubility

Determine its reported solubility: C=CC(=O)Nc1cc(Nc2cc(N3OCC[C@@H]3c3cc(F)cc(F)c3)ncn2)c(OC)cc1N1CCC(N2CCN(C3CC3)CC2)CC1 [malonate salt of Compound I]
20 to 40 mg/mL

====

Biological target: EGFR_L792H (Homo sapiens, UniProt P00533, L792H)
Sequence (P00533 25-1210 L792H): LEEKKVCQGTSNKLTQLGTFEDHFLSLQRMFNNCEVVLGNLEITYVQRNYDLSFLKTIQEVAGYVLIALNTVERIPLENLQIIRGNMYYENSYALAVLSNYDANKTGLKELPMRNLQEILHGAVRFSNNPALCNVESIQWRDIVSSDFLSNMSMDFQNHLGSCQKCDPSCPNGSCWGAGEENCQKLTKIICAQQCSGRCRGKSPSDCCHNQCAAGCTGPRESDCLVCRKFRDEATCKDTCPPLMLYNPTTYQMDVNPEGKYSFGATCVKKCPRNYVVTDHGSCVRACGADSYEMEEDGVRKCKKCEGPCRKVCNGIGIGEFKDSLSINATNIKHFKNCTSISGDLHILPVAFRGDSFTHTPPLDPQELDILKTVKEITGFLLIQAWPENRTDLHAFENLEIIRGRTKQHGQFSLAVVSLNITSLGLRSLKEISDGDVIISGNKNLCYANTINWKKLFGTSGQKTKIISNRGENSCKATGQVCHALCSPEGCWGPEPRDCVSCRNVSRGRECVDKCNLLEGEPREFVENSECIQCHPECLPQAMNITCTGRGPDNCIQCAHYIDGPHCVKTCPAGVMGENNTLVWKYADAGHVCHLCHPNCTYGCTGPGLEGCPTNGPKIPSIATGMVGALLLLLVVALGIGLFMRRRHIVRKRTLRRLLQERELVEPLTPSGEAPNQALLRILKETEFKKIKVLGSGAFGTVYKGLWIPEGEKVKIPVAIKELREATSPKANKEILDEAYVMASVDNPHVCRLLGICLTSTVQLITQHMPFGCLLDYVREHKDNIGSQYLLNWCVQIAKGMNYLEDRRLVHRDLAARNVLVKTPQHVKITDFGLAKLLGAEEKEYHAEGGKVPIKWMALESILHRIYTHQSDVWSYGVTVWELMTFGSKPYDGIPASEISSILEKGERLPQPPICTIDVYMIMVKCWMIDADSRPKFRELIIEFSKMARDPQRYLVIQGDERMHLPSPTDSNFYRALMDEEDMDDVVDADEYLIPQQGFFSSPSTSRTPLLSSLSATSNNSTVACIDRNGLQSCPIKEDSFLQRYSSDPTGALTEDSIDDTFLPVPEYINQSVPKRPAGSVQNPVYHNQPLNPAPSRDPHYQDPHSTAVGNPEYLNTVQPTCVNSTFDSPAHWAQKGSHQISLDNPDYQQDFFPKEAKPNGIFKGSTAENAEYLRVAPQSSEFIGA
Experiment: EGFR kinase activity (AQT0794 peptide, Sox fluorescence)
Conditions: 1 mM ATP, 1.0 nM enzyme, room temperature
observable: IC50 (nM)
Write the answer as a number in nM, unit excluded.

Supply IC50 measured with EGFR_L792H (Homo sapiens, UniProt P00533, L792H) for C=CC(=O)Nc1cc(Nc2cc(N3OCC[C@@H]3c3cc(F)cc(F)c3)ncn2)c(OC)cc1N1CCC(N2CCN(C3CC3)CC2)CC1 [Compound I] .
16

====

Assay: Solubility screening of malonate salt of Compound I in various solvents at RT
Type: physicochemical
Settings: Water, RT
Where a name gives a salt, the structure may show the parent alone.
observable: solubility

Determine its reported solubility: C=CC(=O)Nc1cc(Nc2cc(N3OCC[C@@H]3c3cc(F)cc(F)c3)ncn2)c(OC)cc1N1CCC(N2CCN(C3CC3)CC2)CC1 [malonate salt of Compound I]
< 1200 µg/mL

====

Biological target: EGFR_G719S (Homo sapiens, UniProt P00533, G719S)
Sequence (P00533 25-1210 G719S): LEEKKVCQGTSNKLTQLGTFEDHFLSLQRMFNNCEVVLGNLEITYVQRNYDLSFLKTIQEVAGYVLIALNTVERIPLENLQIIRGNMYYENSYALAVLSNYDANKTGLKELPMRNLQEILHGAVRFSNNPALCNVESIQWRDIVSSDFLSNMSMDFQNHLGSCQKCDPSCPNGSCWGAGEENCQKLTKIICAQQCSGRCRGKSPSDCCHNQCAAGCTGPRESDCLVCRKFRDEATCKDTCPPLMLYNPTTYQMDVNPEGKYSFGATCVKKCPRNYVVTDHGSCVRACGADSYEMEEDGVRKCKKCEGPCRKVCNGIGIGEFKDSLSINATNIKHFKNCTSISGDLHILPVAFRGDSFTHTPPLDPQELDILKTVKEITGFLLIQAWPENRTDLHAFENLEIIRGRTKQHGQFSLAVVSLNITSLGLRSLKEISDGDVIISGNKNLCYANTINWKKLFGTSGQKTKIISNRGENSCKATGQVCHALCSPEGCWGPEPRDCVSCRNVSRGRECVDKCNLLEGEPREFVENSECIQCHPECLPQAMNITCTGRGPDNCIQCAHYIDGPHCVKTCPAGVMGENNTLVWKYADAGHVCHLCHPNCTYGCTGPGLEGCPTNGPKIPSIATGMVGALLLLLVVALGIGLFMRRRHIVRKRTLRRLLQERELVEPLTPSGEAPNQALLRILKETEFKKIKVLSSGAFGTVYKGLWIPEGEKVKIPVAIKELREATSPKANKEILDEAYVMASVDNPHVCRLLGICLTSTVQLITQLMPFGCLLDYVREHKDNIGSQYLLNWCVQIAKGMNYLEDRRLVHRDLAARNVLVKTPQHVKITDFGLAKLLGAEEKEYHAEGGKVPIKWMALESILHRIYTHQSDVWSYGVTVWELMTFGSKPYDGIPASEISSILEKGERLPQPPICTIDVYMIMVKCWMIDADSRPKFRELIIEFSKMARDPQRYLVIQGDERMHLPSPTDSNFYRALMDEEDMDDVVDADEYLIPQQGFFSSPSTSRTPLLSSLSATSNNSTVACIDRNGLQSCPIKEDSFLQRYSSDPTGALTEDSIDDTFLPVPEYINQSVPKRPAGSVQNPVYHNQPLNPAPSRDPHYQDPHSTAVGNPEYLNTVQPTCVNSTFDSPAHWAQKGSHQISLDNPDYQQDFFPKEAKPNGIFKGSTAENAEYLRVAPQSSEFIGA
Assay: EGFR kinase activity (AQT0794 peptide, Sox fluorescence)
Settings: 1 mM ATP, 1.0 nM enzyme, room temperature
observable: pIC50
Note on units: pIC50 is unitless, being -log10 of a concentration expressed in mol/L.

Determine its reported pIC50: `C=CC(=O)Nc1cc(Nc2cc(N3OCC[C@@H]3c3cc(F)cc(F)c3)ncn2)c(OC)cc1N1CCC(N2CCN(C3CC3)CC2)CC1`
9.05

====

Test: Solubility screening of malonate salt of Compound I in various solvents at RT
Assay type: physicochemical
Details: organic solvent or mixture; Acetone, RT
Structures can show the parent of a compound that is named as a salt.
observable: solubility

Determine its reported solubility: C=CC(=O)Nc1cc(Nc2cc(N3OCC[C@@H]3c3cc(F)cc(F)c3)ncn2)c(OC)cc1N1CCC(N2CCN(C3CC3)CC2)CC1 [malonate salt of Compound I]
1100 to 2200 µg/mL

====

Test: Solubility screening of malonate salt of Compound I in various solvents at RT
Type: physicochemical
Details: organic solvent or mixture; MeOH, RT
Counter-ions that a name gives are not always drawn.
observable: solubility

Determine its reported solubility: C=CC(=O)Nc1cc(Nc2cc(N3OCC[C@@H]3c3cc(F)cc(F)c3)ncn2)c(OC)cc1N1CCC(N2CCN(C3CC3)CC2)CC1 [malonate salt of Compound I]
> 46 mg/mL

====

Assay: Solubility screening of malonate salt of Compound I in various solvents at RT
Type: physicochemical
Conditions: organic solvent or mixture; IPA, RT
Method: The solubility of the malonate salt of Compound I as prepared according to Example 2 in various solvents at RT was measured. The malonate salt of Compound I (approximately 2 mg) was added to a 3-mL glass vial. The solvent was then added stepwise (50/50/200/200/500/1000 μL) into the vial until the solids were dissolved visually or a total volume of 2 mL was reached.
Structures can show the parent of a compound that is named as a salt.
observable: solubility

Determine its reported solubility: C=CC(=O)Nc1cc(Nc2cc(N3OCC[C@@H]3c3cc(F)cc(F)c3)ncn2)c(OC)cc1N1CCC(N2CCN(C3CC3)CC2)CC1 [malonate salt of Compound I]
< 1200 µg/mL
